Test system: OVCAR-8
Test: NCI tumour cell line growth inhibition, 48 h
Activity calls are given as the source filed them. Cut-off read from the data, not from the text of the source: active = GI50 up to about 1.1 µM and inactive = higher. Non-standard residues stand in square brackets, D forms with d. Residues, ends and D or L forms follow the SMILES beside them. ΔPro = O=C(O)[CH]1C=CCN1
The reader will find reported GI50 values listed item by item below.

Known results for compounds:
- O=C(O)C1C=CCN1C(=O)C1C=CCN1C(=O)C1C=CCN1 (centres undefined) (H-[ΔPro]-[ΔPro]-[ΔPro]-OH; configuration not given here): > 100 µM (inactive)
- CCOc1ccc(/N=N/c2ccc3oc(=O)c(/C(C)=N\NC(=O)CC(=O)Nc4ccc(Cl)cc4)cc3c2)cc1: 16.1 µM (inactive)

Looking for the measured GI50 of CCCNC1=C(C(=O)OCC)C(=O)CO1 , can you help? > 100 µM (inactive)

Dear colleague, I am looking for the recorded GI50 of the following compound: N#CC(C(=O)/C(=N/NC(=O)c1ccccc1O)C(C#N)c1ccc(Cl)cc1)c1ccc(Cl)cc1 (centres undefined) 13.4 µM (inactive)
